target of assay: Gcr1 (UniProt P07261)
Sequence: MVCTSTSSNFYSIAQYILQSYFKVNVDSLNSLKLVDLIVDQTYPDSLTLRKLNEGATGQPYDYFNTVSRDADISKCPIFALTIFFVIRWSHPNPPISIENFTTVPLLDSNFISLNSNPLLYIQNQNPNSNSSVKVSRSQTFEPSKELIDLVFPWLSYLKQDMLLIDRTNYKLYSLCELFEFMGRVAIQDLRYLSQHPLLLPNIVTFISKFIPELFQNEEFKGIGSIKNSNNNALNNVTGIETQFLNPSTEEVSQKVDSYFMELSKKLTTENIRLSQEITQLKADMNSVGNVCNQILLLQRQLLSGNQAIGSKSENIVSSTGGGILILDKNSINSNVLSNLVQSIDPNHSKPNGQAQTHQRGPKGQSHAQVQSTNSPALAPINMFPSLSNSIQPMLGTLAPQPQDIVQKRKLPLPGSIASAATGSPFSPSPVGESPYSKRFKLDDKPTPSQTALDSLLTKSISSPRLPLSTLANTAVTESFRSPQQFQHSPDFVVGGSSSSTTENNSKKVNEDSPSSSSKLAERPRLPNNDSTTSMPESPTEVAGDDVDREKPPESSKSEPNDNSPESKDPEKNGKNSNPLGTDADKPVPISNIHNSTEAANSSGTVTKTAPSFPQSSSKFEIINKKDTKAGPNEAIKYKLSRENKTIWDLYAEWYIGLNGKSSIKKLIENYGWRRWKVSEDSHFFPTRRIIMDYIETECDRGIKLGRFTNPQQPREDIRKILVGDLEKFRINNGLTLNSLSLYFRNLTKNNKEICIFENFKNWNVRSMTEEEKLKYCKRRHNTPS
measurement description: PBM E-score (8-mer binding enrichment) (E-score (-0.5 to 0.5)); higher = stronger / more preferred TF binding
protocol conditions: protein concentration: 100 nM; construct: GST-full length
Over roughly 33,000 sequences, “E-score (-0.5 to 0.5)” has its median near -0.011; the highest 2% begin near 0.28. For the sample, the highest values were picked, then their nearest neighbours and some sequences at random.
Where PBM E-score equals or exceeds 0.1, the correct label is Met; where it does not, the label is Not met.

Answered cases to consult:
AGGAGCCC | Met
AGGCTATC | Not met
AGCGCCCA | Met

In: Evaluate AAAGACTC : PBM E-score at minimum 0.1?
Out: Not met

In: Evaluate AGAAGCCG : PBM E-score at minimum 0.1?
Out: Met

In: Evaluate TGGACAAA : PBM E-score at minimum 0.1?
Out: Not met

In: Evaluate AGAAGCAG : PBM E-score at minimum 0.1?
Out: Met

In: Evaluate AGCGCCCC : PBM E-score at minimum 0.1?
Out: Met

In: Evaluate GTCGCCTA : PBM E-score at minimum 0.1?
Out: Not met

In: Evaluate AGAAGCCT : PBM E-score at minimum 0.1?
Out: Met

In: Evaluate GGGCTACC : PBM E-score at minimum 0.1?
Out: Met

In: Evaluate ACGAAGCT : PBM E-score at minimum 0.1?
Out: Met

In: Evaluate AAAAGCCC : PBM E-score at minimum 0.1?
Out: Not met

In: Evaluate CAAAGGCG : PBM E-score at minimum 0.1?
Out: Not met

In: Evaluate GGCGCCCC : PBM E-score at minimum 0.1?
Out: Met
